Values compiled from ChEMBL document CHEMBL2380288.

- Test summary: Selectivity ratio of IC50 for rat liver DHFR to IC50 for Mycobacterium avium DHFR
Mark True only when Ratio IC50 stays strictly below 1. Values equal to the cut-off are False.

Nc1nc(N)c2cc(Nc3cc(F)ccc3F)cnc2n1 True

State whether 1 exceeds Ratio IC50 recorded for `Nc1nc(N)c2cc(Nc3cc(F)c(F)c(F)c3)cnc2n1` . False

Quick one: `CN(c1cnc2nc(N)nc(N)c2c1)c1cccc2ccccc12` False

Please answer likewise for `Cc1ccc(N(C)c2cnc3nc(N)nc(N)c3c2)cc1` False

Please give the result for `CC(C)c1ccc(Nc2cnc3nc(N)nc(N)c3c2)cc1` too. False

----------
- System tested: Dihydrofolate reductase (Pneumocystis carinii)
- Sequence (P16184 whole entry): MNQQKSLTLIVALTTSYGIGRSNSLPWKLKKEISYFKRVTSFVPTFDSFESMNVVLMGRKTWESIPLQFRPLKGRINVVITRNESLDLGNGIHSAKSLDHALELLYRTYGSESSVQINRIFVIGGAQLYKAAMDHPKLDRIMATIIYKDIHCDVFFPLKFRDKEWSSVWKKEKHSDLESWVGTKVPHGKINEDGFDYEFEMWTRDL
# note: exactly 2000 nM is not below, so it is 0 (no); use 1 (yes) for IC50 strictly under it

Answered cases to consult:
Nc1nc(N)c2cc(Nc3cccc4ccccc34)cnc2n1 1 (yes)
Cc1ccc(Nc2cnc3nc(N)nc(N)c3c2)cc1 0 (no)
Cc1ccc(N(C)c2cnc3nc(N)nc(N)c3c2)cc1 1 (yes)

Threshold test, IC50 < 2000 nM: `COc1ccc(N(C)c2cnc3nc(N)nc(N)c3c2)cc1` 1 (yes)

Would you kindly repeat that for `CN(c1cc(F)c(F)c(F)c1)c1cnc2nc(N)nc(N)c2c1` ? 1 (yes)

What do we get for `COc1ccc(OC)c(Nc2cnc3nc(N)nc(N)c3c2)c1` ? 0 (no)

----------
The following molecules are shown together with reported Ratio IC50 values.
- Test summary: Selectivity ratio of IC50 for human recombinant DHFR to IC50 for Pneumocystis jirovecii recombinant DHFR
# respond with the number and nothing more

The following molecules have reported results that may help.
Nc1nc(N)c2cc(Nc3cccc4ccccc34)cnc2n1 8.2
CN(c1ccc([N+](=O)[O-])cc1)c1cnc2nc(N)nc(N)c2c1 12

Then this molecule:
Entry `Nc1nc(N)c2cc(Nc3ccc([N+](=O)[O-])cc3)cnc2n1` : reported Ratio IC50 = ? 2

----------
- System tested: Dihydrofolate reductase (Rattus norvegicus, UniProt Q920D2)
- Test summary: Inhibition of rat liver DHFR
pIC50: −log10 of the molar value.
Give t when the value for pIC50 is at least 6. Give f when it is less.

CC(C)c1ccc(Nc2cnc3nc(N)nc(N)c3c2)cc1 f
COc1ccc(OC)c(Nc2cnc3nc(N)nc(N)c3c2)c1 f
CN(c1ccccc1)c1cnc2nc(N)nc(N)c2c1 t

Quick check, pIC50 >= 6? `COc1ccc(Nc2cnc3nc(N)nc(N)c3c2)cc1` f

// same read-out, input: `CN(c1cnc2nc(N)nc(N)c2c1)c1cc(F)ccc1F` t

Query `CN(c1cc(F)c(F)c(F)c1)c1cnc2nc(N)nc(N)c2c1` next t

// same read-out, input: `CC(C)c1ccc(N(C)c2cnc3nc(N)nc(N)c3c2)cc1` t

Same thing, different molecule: `Nc1nc(N)c2cc(Nc3ccccc3)cnc2n1` t

Then what about the molecule `COc1ccc(OC)c(N(C)c2cnc3nc(N)nc(N)c3c2)c1` ? t

Cool, now `COc1cc(N(C)c2cnc3nc(N)nc(N)c3c2)cc(OC)c1OC` t

Follow-up item: `CN(c1cnc2nc(N)nc(N)c2c1)c1cccc2ccccc12` t

----------
Target protein (sequence): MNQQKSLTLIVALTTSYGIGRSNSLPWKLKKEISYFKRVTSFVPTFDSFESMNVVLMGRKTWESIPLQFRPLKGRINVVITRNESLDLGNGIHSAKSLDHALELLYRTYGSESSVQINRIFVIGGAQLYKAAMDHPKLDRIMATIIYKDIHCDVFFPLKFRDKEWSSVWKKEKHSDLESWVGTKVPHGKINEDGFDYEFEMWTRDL
Listed here: items and their measured pIC50.
pIC50 (log units): -log10 of the concentration in mol/L.

COc1cc(N(C)c2cnc3nc(N)nc(N)c3c2)cc(OC)c1OC 8.64
Nc1nc(N)c2cc(Nc3cc(F)ccc3F)cnc2n1 5.11
Nc1nc(N)c2cc(Nc3ccccc3)cnc2n1 5.64

Look up pIC50: `COc1cc(Nc2cnc3nc(N)nc(N)c3c2)cc(OC)c1OC` 5.34

Please give the result for `CN(c1ccccc1)c1cnc2nc(N)nc(N)c2c1` too. 7.12

For `CC(C)c1ccc(Nc2cnc3nc(N)nc(N)c3c2)cc1` then? 5.31

----------
Measured Ratio IC50 accompanies every entry in the list below.
- Test summary: Selectivity ratio of IC50 for rat liver DHFR to IC50 for Pneumocystis carinii DHFR
Please give the numeric answer without any surrounding text.

# count of solved cases: 5
CN(c1ccccc1)c1cnc2nc(N)nc(N)c2c1 1.6
COc1cc(N(C)c2cnc3nc(N)nc(N)c3c2)cc(OC)c1OC 3
Cc1ccc(Nc2cnc3nc(N)nc(N)c3c2)cc1 0.5
Cc1ccc(N(C)c2cnc3nc(N)nc(N)c3c2)cc1 1.1
COc1ccccc1Nc1cnc2nc(N)nc(N)c2c1 0.1

For the molecule `COc1ccc(N(C)c2cnc3nc(N)nc(N)c3c2)cc1` , what Ratio IC50 is on record? 2.5

Repeat for the following molecule: `Nc1nc(N)c2cc(Nc3ccccc3)cnc2n1` 0.2

And the next one, `CN(c1cnc2nc(N)nc(N)c2c1)c1cc(F)ccc1F` ? 0.7

What would you report for `COc1ccc(OC)c(Nc2cnc3nc(N)nc(N)c3c2)c1` ? 0.5

Follow-up entry: `COc1ccc(OC)c(N(C)c2cnc3nc(N)nc(N)c3c2)c1` 1

Same lookup for `COc1ccccc1N(C)c1cnc2nc(N)nc(N)c2c1` , please. 1

Again, but for `Nc1nc(N)c2cc(Nc3ccc([N+](=O)[O-])cc3)cnc2n1` 0.8

----------
- System tested: Dihydrofolate reductase (Pneumocystis carinii, UniProt P16184)
- Sequence (P16184 whole entry): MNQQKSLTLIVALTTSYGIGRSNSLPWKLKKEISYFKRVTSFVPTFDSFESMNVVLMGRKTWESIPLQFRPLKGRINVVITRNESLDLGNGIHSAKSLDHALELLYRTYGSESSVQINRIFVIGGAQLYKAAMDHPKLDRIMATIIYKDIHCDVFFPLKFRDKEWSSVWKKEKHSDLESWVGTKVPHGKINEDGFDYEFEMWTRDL
Measurement kind: pIC50
Reminder that pIC50 is minus the log10 of a molar concentration.

Worked examples, 2 molecules total:
Nc1nc(N)c2cc(Nc3ccc4ccccc4c3)cnc2n1 5.60
CN(c1cnc2nc(N)nc(N)c2c1)c1cc(F)ccc1F 7.01

# value lookup — system Dihydrofolate reductase (Pneumocystis carinii, UniProt P16184), readout pIC50, item `Nc1nc(N)c2cc(Nc3cc(F)c(F)c(F)c3)cnc2n1` 5.05

And `COc1ccccc1N(C)c1cnc2nc(N)nc(N)c2c1` ? 7.64

What do we get for `COc1ccccc1Nc1cnc2nc(N)nc(N)c2c1` ? 5.14

Ok, now `CN(c1ccc([N+](=O)[O-])cc1)c1cnc2nc(N)nc(N)c2c1` 6.24

Then this molecule: `COc1ccc(OC)c(N(C)c2cnc3nc(N)nc(N)c3c2)c1` 8.44

Field entry: `CN(c1cnc2nc(N)nc(N)c2c1)c1cccc2ccccc12` 8.68

Another molecule: `COc1ccc(Nc2cnc3nc(N)nc(N)c3c2)cc1` 5.27

Moving on to the next molecule: `CC(C)c1ccc(N(C)c2cnc3nc(N)nc(N)c3c2)cc1` 7.68

Also `Nc1nc(N)c2cc(Nc3ccc([N+](=O)[O-])cc3)cnc2n1` , if possible. 4.80

----------
- Test summary: Selectivity ratio of IC50 for human recombinant DHFR to IC50 for Pneumocystis jirovecii recombinant DHFR
Measurement kind: Ratio IC50
Lab note: jot down the number only; don't add units.

Cc1ccc(N(C)c2cnc3nc(N)nc(N)c3c2)cc1 13
CC(C)c1ccc(Nc2cnc3nc(N)nc(N)c3c2)cc1 5.6
COc1ccccc1N(C)c1cnc2nc(N)nc(N)c2c1 9.3
COc1cc(N(C)c2cnc3nc(N)nc(N)c3c2)cc(OC)c1OC 2.8
CN(c1cnc2nc(N)nc(N)c2c1)c1cc(F)ccc1F 14

Request the reported Ratio IC50 associated with `CN(c1cnc2nc(N)nc(N)c2c1)c1cccc2ccccc12` 2.2

----------
- System tested: Dihydrofolate reductase (Rattus norvegicus)
- Sequence (Q920D2 whole entry): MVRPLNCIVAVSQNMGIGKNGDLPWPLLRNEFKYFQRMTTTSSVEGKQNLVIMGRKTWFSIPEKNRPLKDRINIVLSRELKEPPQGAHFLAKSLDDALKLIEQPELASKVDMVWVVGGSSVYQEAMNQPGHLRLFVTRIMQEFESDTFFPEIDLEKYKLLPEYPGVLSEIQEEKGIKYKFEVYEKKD
Please use Met for IC50 under 800 nM and Not met for everything else, ties included.

For orientation, consider the following solved cases.
Nc1nc(N)c2cc(Nc3cc(F)ccc3F)cnc2n1 Not met
Nc1nc(N)c2cc(Nc3ccc([N+](=O)[O-])cc3)cnc2n1 Not met
CN(c1ccc([N+](=O)[O-])cc1)c1cnc2nc(N)nc(N)c2c1 Met
COc1cc(Nc2cnc3nc(N)nc(N)c3c2)cc(OC)c1OC Not met
Cc1ccc(Nc2cnc3nc(N)nc(N)c3c2)cc1 Not met

Could you now consider this next compound?
Report whether reported IC50 is lower than 800 nM (strictly) for `COc1ccccc1N(C)c1cnc2nc(N)nc(N)c2c1` Met
